# Tested on: Streptococcus
# ASSAY TEXT: Group A Streptococcus viability loss, dose response, counter-screen for streptokinase expression inhibitor project, luminescence, BacTiterGlo (AID 1915);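 also: potency for reduction of bacterial viability or growth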
# Format: functional, organism-based
The source made the active and inactive calls. Rule as the data show it: actives have a measured EC50 and inactives only a lower limit.

SMILES: O=C(Nc1cccc(S(=O)(=O)Nc2ccc(Cl)cc2)c1)c1cc2c(s1)CCCC2
EC50: 1.98 µM (active)

SMILES: O=[N+]([O-])c1cc(C(F)(F)F)cc([N+](=O)[O-])c1NCCN=C(S)Nc1ccc(Cl)c(Cl)c1
EC50: 6.5 µM (active)

SMILES: CC(C)C[C@H](NC(=O)c1[nH]cnc1C(=O)N[C@H](C)c1ccccc1)C(=O)OC(C)(C)C
EC50: 9.3 µM (active)

SMILES: Cc1cccc(Oc2nc(-c3ccncc3)nc3ccccc23)c1
EC50: 12.5 µM (active)

SMILES: O=C(Nc1nc(-c2ccccn2)cs1)c1ccc(S(=O)(=O)N2CCCCC2)cc1
EC50: 2.56 µM (active)

SMILES: C/C(=N\Nc1cc(C)nc(-c2ccccc2O)n1)c1ccccc1O
EC50: > 150 µM (not active)

SMILES: C/C(=N\NC(=S)NCc1ccccc1)c1cccc(Br)c1
EC50: > 150 µM (not active)

SMILES: CC(C)C[C@H](NC(=O)c1[nH]cnc1C(=O)N[C@@H](Cc1ccccc1)C(=O)OC(C)(C)C)C(=O)OC(C)(C)C
EC50: 5.07 µM (active)
